- test-target: T1, murine GPC3-His protein (Sino Biological, Cat. No. 50989-M08B) (murine, UniProt Q8CFZ4 25-558)
- T1 construct: Bought protein; also called murine GPC3 protein; mouse GPC3-his protein; not shown: His tag
- T1 sequence (Q8CFZ4 25-558 limits assumed): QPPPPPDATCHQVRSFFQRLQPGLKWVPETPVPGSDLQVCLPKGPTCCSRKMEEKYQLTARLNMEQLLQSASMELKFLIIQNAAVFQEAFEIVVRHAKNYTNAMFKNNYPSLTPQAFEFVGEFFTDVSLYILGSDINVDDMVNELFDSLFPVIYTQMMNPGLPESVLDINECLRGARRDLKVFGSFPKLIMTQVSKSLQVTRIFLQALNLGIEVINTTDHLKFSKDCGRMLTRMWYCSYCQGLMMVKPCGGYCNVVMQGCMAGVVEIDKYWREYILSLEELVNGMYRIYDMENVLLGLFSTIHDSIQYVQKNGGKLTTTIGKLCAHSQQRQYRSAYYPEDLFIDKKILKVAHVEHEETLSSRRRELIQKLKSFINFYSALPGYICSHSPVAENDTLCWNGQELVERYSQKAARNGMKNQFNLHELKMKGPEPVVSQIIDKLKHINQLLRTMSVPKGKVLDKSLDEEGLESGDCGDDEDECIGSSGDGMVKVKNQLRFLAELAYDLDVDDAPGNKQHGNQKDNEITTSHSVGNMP
- assay-protocol: ELISA, coated antigen

[
  {
    "binder": "hAb007LH3L1a (antibody, human IgG1, V domains shown, Humanized F3.81.19) VH: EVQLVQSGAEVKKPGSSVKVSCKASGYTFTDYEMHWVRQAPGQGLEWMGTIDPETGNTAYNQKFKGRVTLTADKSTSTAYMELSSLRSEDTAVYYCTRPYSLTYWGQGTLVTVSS VL: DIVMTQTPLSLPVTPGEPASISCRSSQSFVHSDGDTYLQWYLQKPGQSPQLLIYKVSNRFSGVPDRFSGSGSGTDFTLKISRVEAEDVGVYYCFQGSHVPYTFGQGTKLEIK",
    "binding result": "no binding"
  },
  {
    "binder": "hAb007LH3L1b (antibody, human IgG1, V domains shown, Humanized F3.81.19) VH: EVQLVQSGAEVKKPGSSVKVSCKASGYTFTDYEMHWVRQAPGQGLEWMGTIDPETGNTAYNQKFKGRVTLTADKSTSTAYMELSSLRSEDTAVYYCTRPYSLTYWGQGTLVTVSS VL: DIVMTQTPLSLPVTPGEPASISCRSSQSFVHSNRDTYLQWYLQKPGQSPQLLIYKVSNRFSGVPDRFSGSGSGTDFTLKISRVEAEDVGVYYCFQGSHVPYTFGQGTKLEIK",
    "binding result": "no binding"
  },
  {
    "binder": "hAb007LH1L1d (antibody, human IgG1, V domains shown, Humanized F3.81.19) VH: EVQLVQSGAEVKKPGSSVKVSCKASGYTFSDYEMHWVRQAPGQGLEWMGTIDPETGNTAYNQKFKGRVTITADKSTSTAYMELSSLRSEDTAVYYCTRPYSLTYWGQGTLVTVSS VL: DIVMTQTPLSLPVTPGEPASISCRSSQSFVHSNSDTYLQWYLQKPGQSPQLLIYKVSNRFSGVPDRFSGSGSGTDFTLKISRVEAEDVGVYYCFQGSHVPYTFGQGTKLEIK",
    "binding result": "no binding"
  },
  {
    "binder": "hAb006LH1L1 (antibody, human IgG1, V domains shown, Humanized F3.38.7) VH: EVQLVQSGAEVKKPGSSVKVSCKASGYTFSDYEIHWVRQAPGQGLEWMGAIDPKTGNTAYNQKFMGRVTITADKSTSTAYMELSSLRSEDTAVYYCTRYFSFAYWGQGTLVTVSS VL: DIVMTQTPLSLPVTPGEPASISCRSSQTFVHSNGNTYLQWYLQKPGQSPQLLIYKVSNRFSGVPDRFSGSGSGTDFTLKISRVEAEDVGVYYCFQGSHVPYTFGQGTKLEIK",
    "binding result": "no binding"
  }
]

// provenance: patent US20260116991A1
